ASSAY_CONDITIONS: 298.15 K; 101 kPa; Liquid
Here the recorded mass density is given for each entry.
METRIC: mass density (kg/m3)

>>> df
                                   molecule  result_number
0  CCCCCCCC[n+]1ccn(C)c1.F[B-](F)(F)F [1-methyl-3-octylimidazolium tetrafluoroborate]        1101.08
1                                     COCCO         960.05
2                                  COCCOCCO        1014.87
3  COCCOCCOCCO [2-[2-(2-methoxyethoxy)ethoxy]ethanol]        1044.91
